Values from patent US20210145976A1

# IC50, SK-BR3 viability, MMAF conjugate, with 0.6 uM holo-human transferrin per entry
System Under Test: CD71 on SK-BR-3 cells (human, UniProt P02786 1-760)
Sequence (P02786 whole entry): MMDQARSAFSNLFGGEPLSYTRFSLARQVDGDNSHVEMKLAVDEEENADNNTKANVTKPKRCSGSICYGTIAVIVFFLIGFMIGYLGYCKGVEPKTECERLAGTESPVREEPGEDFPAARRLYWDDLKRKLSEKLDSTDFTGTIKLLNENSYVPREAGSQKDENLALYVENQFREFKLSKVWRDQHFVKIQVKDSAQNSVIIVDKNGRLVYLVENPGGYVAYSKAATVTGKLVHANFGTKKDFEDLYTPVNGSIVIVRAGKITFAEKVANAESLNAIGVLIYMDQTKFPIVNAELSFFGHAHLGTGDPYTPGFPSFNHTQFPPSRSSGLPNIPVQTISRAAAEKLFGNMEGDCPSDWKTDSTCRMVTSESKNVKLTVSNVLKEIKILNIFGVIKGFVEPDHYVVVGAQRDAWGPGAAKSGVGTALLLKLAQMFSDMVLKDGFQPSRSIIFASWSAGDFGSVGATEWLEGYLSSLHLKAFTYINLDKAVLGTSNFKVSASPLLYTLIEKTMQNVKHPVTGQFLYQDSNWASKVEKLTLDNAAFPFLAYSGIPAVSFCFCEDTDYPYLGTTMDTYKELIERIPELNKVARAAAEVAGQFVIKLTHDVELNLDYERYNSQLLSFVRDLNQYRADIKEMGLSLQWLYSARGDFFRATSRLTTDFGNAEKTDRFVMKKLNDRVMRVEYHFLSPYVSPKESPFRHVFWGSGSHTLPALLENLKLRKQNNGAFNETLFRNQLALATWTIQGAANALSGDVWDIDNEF
Assay Notes: cell-based or functional assay
Endpoint: IC50, SK-BR3 viability, MMAF conjugate, with 0.6 uM holo-human transferrin

{"Binder": "SEQ ID NO 40 (designed binder, FN3 domain) MLPAPKNLVVSRVTEDSARLSWTAPDAAFDSFVIEYWEYVGHGEAIVLTVPGSERSYDLTGLKPGTEYSVGIYGVKGGSLSRPLSAIFTT", "Result": "~100 nM"}
{"Binder": "SEQ ID NO 53 (designed binder, FN3 domain) MLPAPKNLVVSRVTEDSARLSWTAPDAAFDSFFISYIEWWDLGEAIVLTVPGSERSYDLTGLKPGTEYHVEIFGVKGGTQSYPLSAIFTT", "Result": "~90 nM"}
{"Binder": "SEQ ID NO 33 (designed binder, FN3 domain) MLPAPKNLVVSRVTEDSARLSWTAPDAAFDSFTIQYEELTTVGEAIYLRVPGSERSYDLTGLKPGTEYVVWIEGVKGGLRSNPLGAAFTT", "Result": "~200 nM"}
{"Binder": "SEQ ID NO 47 (designed binder, FN3 domain) MLPAPKNLVVSRVTEDSARLSWTAPDAAFDSFTIWYAEALGDGEAIVLTVPGSERSYDLTGLKPGTEYFVDIYGVKGGFWSLPLSAIFTT", "Result": "~85 nM"}
